Assay: qHTS for Inhibitors of the Functional Ribonucleoprotein Complex (vRNP) of Lassa (LASV) Arenavirus: Viability assay - alamar blue signal for LASV Primary Screen (AID 1347083); further: nearly all actives have a fitted effect of over 80% in size
Conditions: cell viability, alamar blue fluorescence (LASV minigenome counter-screen); series mostly up to 57.5 µM
Results filed as inconclusive are left out. Calls of active or inactive are those of the source. The call rests on the fitted dose curve; tested in HEK293 reporter line.
Give one outcome, nothing more. List: YES = active, NO = inactive

CN(c1ncccc1CNc1nc(Nc2ccc3c(c2)CC(=O)N3)ncc1C(F)(F)F)S(C)(=O)=O; YES
COc1ccccc1N1CCN(CC(O)COc2cc(OC)c(OC)c(OC)c2)CC1 (centres undefined); NO
CC1(C)CCC(c2ccc(Cl)cc2)=C(CN2CCN(c3ccc(C(=O)NS(=O)(=O)c4ccc(N[C@H](CCN5CCOCC5)CSc5ccccc5)c(S(=O)(=O)C(F)(F)F)c4)cc3)CC2)C1; NO
CC(=O)O[C@@]12CO[C@H]1C[C@H](O)[C@@]1(C)C(=O)[C@H](O)C3=C(C)[C@@H](O)C[C@@](O)([C@@H](OC(=O)c4ccccc4)[C@@H]21)C3(C)C; YES
COc1ccc2cc(CCC(C)=O)ccc2c1; NO
Cn1cc(-c2[nH]c3cc(NC(=O)[C@H](N)C4CCCCC4)cc4c3c2C=NNC4=O)cn1; YES

Task: I'd appreciate the recorded outcome for O=C(O)c1ccc2c(c1)nc(Nc1cccc(Cl)c1)c1ccncc12 from this test.
Result: NO

Task: I'd appreciate the recorded outcome for Cc1nc(-c2ccc(-c3ccc(C(=O)N4CCc5cc6c(cc54)C4(CCN(C)CC4)CO6)cc3)c(C)c2)no1 from this test.
Result: NO

Task: I'd appreciate the recorded outcome for CCCC[N+]1(C)[C@H]2CC(OC(=O)[C@H](CO)c3ccccc3)C[C@H]1[C@H]1O[C@H]12 (some centres undefined) from this test.
Result: NO

Task: I'd appreciate the recorded outcome for O=C(NO)c1ccccc1 from this test.
Result: NO

Task: I'd appreciate the recorded outcome for OCCCBr from this test.
Result: NO

---

Assay: Cytotoxicity counterscreen for inhibitors of SARS-CoV-2 cell entry (AID 1645845); further: nearly all actives have a fitted effect of over 50% in size
Conditions: cell viability (SARS-CoV-2 entry assay cells); series mostly up to 57.1 µM
Results filed as inconclusive are left out. Active and inactive are the calls of the source. Calls come from the whole dose curve.
Give one outcome, nothing more. List: active, inactive

CCOc1ccn(-c2ccc(F)cc2)c(=O)c1C(=O)Nc1ccc(Oc2ccnc(N)c2Cl)c(F)c1; inactive
COc1ccccc1-c1cccc(-c2c(O)c3cc(C#N)c(Cl)cc3[nH]c2=O)c1; inactive
CC(C)(C)C(=O)Oc1ccc2c(c1)nc(NC(=O)c1cccc([N+](=O)[O-])c1)n2CCCO; inactive

Kindly review the next molecule as well.
Task: I'd appreciate the recorded outcome for C#CC1(O)CCC2C3CCC4=CC(=O)CCC4(C)C3CCC21C (stereo unspecified) from this test.
Result: inactive

---

Settings: Ebola virus entry assay, reporter ratio channel; Channel type: primary
Active and inactive are the calls of the source. How the calls were made is not given here.
measurement-label: AC50

Below: 8 molecules and their reported AC50.
c1cc2ccc3cccc4ccc(c1)c2c34; inactive
COc1ccc2c(c1)c1c3n2CCN(C)C3=NCC1; inactive
O=[N+]([O-])c1cc([N+](=O)[O-])c2ccccc2c1; inactive
CCOP(=O)(NC(C)C)Oc1ccc(SC)c(C)c1 (stereo not drawn); inactive
N=C1N=C(N)c2cc3ccccc3cc21; inactive
Cc1ccc(N)cc1O; 31.6 µM (active)
Brc1ccccc1-c1ccccc1; inactive
O=C(Nc1cccc(C2=NCCN2)c1)Nc1cccc(C2=NCCN2)c1; inactive

Give AC50 for each listed item.
1. CCCCC(CC)COC(=O)/C=C/c1ccc(OC)cc1 (stereo not drawn)
2. Nc1ccc(Sc2ccc(N)cc2)cc1
3. CC(=O)N[C@@H](CCC(N)=O)C(=O)O

Result:
inactive
inactive
inactive

Give AC50 for each listed item.
1. C=CCC1=C(C)C(OC(=O)C2C(C=C(C)C)C2(C)C)CC1=O (stereo not drawn)
2. CCOC(=O)c1cccnc1
3. CCCCCCCCCCCCCC[N+](C)(C)C
4. CN(C)c1ccc(N=NS(=O)(=O)O)cc1
5. CC(C)NCC(O)c1ccc([N+](=O)[O-])cc1 (stereo not drawn)

Result:
1. inactive
2. inactive
3. 25.1 µM (active)
4. inactive
5. inactive

---

Test: Quantitative High-Throughput drug screen in 47 multiple myeloma cell lines against the NCATS MIPE library collection: KMS34_JCRB cell viability assay (AID 1918985); further: nearly all actives have a fitted effect of over 40% in size
Conditions: KMS34 myeloma viability, CellTiter-Glo ATP luminescence, 48 h; series mostly up to 45.8 µM
Inconclusive results are not listed. The source made the active and inactive calls. Calls follow the shape of the dose curve; as a rule, active = well fitted cell-killing curve with a large enough effect; inconclusive = small, poorly fitted or top-dose-only effect, or effect the other way; inactive = no such curve, though single readings can be large or run the other way.
Give one outcome, nothing more. List: 1.0 (active), 0.0 (inactive)

C[C@]12CC[C@H](O)CC1=CC[C@H]1[C@H]3CCC(=O)[C@@]3(C)CC[C@@H]12; 0.0
O=c1[nH]c2ccc(Cl)cc2c(N[C@@H]2CN3CCC2CC3)c1-c1nc2ccccc2[nH]1; 1.0

Task: I'd appreciate the recorded outcome for Cc1ccccc1-n1c(Cn2cnc3c(N)ncnc32)nc2cccc(C)c2c1=O from this test.
Result: 1.0

Task: I'd appreciate the recorded outcome for C[C@]12CC[C@H]3[C@@H](CCC4=CC(=O)CC[C@@]43C)[C@H]1CC[C@H]2O from this test.
Result: 0.0

Task: I'd appreciate the recorded outcome for N=c1c2c(-c3ccccc3)c(-c3ccccc3)n(Cc3ccccc3)c2ncn1C1CCC(O)CC1 (stereo not given) from this test.
Result: 1.0

---

Details: Ebola virus entry assay, reporter ratio channel; Channel type: primary
The source made the active and inactive calls. How the calls were made is not given here.
Give one outcome, nothing more. List: TRUE for active, FALSE for inactive

Cc1cc(-c2ccccc2)nnc1NCCN1CCOCC1; FALSE
O=[N+]([O-])c1c2ccccc2cc2ccccc12; FALSE
CC(C[N+](C)(C)C)OC(N)=O (centres undefined); FALSE
Oc1c(I)cc(I)c2cccnc12; FALSE
C[C@H](CN1CCCC1)C(=O)c1ccc(C(F)(F)F)cc1; FALSE

Task: I'd appreciate the recorded outcome for CN[C@@H](C)[C@H](O)c1ccccc1 from this test.
Result: FALSE

Task: I'd appreciate the recorded outcome for Cc1cccc(C)c1NC(=O)c1ccccc1C(=O)O from this test.
Result: FALSE

Task: I'd appreciate the recorded outcome for CCN(CC)CCNC(=O)c1ccc(NC(C)=O)cc1 from this test.
Result: FALSE

Task: I'd appreciate the recorded outcome for CC(=O)Oc1cccc(C)c1 from this test.
Result: FALSE

Task: I'd appreciate the recorded outcome for CC(C)(C)c1nnc(NS(=O)(=O)c2ccccc2)s1 from this test.
Result: FALSE

---

Assay: Tertiary RLuc qRT-PCR qHTS assay for Zika virus inhibitors (AID 1347169); further: top concentration of the series differs between compounds; on the % scale 0 is the no-effect control and ±100 the full control effect; nearly all actives have a fitted effect of over 55% in size
Conditions: infected Vero cells, reporter luminescence, 48-72 h; series mostly up to 45.9 µM
Records with an inconclusive call do not appear. The source made the active and inactive calls. Calls follow the shape of the dose curve; as a rule, active = well fitted inhibition curve with a large enough effect; inconclusive = small, poorly fitted or top-dose-only effect; inactive = no such curve, though single readings can be large or run the other way.
measurement-label: activity change, negative = inhibition

O=C(O)c1cc(Oc2ccc(C(F)(F)F)cc2Cl)ccc1[N+](=O)[O-]; 35.5% [at 1.74 µM] (inactive)
CC(C)Oc1cccnc1N(C)C1CCN(Cc2ccccc2)CC1; inactive
O=[N+]([O-])c1c(Cl)c(Cl)cc(Cl)c1Cl; 77.7% [at 3.57 µM] (inactive)
CN(C)[C@@H]1C(=O)C(C(N)=O)=C(O)[C@@]2(O)C(=O)C3=C(O)c4c(O)cccc4[C@@](C)(O)[C@H]3[C@H](O)[C@@H]12; inactive

---

Assay: qHTS profiling of the MIPE4 collection as inhibitors of Plasmodium falciparum (DD2) proliferation (AID 743345)
Settings: P. falciparum Dd2 in erythrocytes, SYBR Green DNA, 72 h; at 28.5 µM (top of the series) unless noted
measurement-label: parasite growth remaining, % of DMSO control (lower = more inhibition) (%)
Give bare numbers, in %.

O=C1C=CC[C@@H]2[C@H]3CCCN4CCC[C@@H](CN12)[C@@H]34; 99.7
C=C1C[C@H]2[C@H]3CCC(=O)[C@@]3(C)CC[C@@H]2[C@@]2(C)C=CC(=O)C=C12; 90.6
CC=C(C)C(=O)O[C@H]1C(C)=C2[C@@H]3OC(=O)[C@@](C)(O)[C@@]3(O)[C@@H](OC(=O)CCC)C[C@](C)(OC(C)=O)[C@@H]2[C@@H]1OC(=O)CCCCCCC; 8.2
CCNC(=O)CC1N=C(c2ccc(Cl)cc2)c2cc(OC)ccc2-n2c(C)nnc21 (stereo not given); 93.8
C[C@@H]1O[C@@H](O[C@@H]2C=C3CC[C@@H]4[C@@H](CC[C@]5(C)[C@H](c6ccc(=O)oc6)CC[C@@]45O)[C@@]3(C)CC2)[C@H](O)[C@H](O)[C@H]1O; 94.6

Give parasite growth remaining, % of DMSO control (lower = more inhibition) for each listed item.
1. CCCCN1CCC(CNC(=O)c2c3n(c4ccccc24)CCCO3)CC1
2. COCC1(CO)C(=O)C2CCN1CC2 (stereo not given)
3. CC(C)(C)c1cc(C=C(C#N)C#N)cc(Br)c1O

Result:
1. 56.2
2. 85.2
3. 93.3

Give parasite growth remaining, % of DMSO control (lower = more inhibition) for each listed item.
1. CCN(CC)C(=O)c1ccc(C2=CC3(CCNCC3)Oc3cccc(O)c32)cc1
2. Cc1nc(-c2ccc(-c3ccc(C(=O)N4CCc5cc6c(cc54)C4(CCN(C)CC4)CO6)cc3)c(C)c2)no1
3. C=C[C@@H]1CN2CCC1C[C@@H]2[C@@H](O)c1ccnc2ccccc12 (stereo not given in full)
4. Cc1[nH]nc2ccc(-c3cncc(OC[C@@H](N)Cc4c[nH]c5ccccc45)c3)cc12
5. O=[N+]([O-])c1ncc[nH]1

Result:
42.1
101
21.4
47.9
99.8

Give parasite growth remaining, % of DMSO control (lower = more inhibition) for each listed item.
1. CC(N[C@H]1C[C@H]1c1ccccc1)c1ccc2c(c1)OCCO2 (stereo not given in full)
2. NC1CC1c1ccccc1 (stereo not given)
3. Cc1c(C(=O)c2cccc3ccccc23)c2cccc3c2n1[C@H](CN1CCOCC1)CO3

Result:
1. 74.9
2. 17.6
3. 47.9

Give parasite growth remaining, % of DMSO control (lower = more inhibition) for each listed item.
1. COC(=O)[C@@H](N)CCCN=C(N)N[N+](=O)[O-]
2. O=C(NCC1CCOCC1)c1cnc(Nc2ccc(Cl)cc2Cl)nc1C(F)(F)F
3. O=c1[nH]c2ccc(Cl)cc2c(N[C@@H]2CN3CCC2CC3)c1-c1nc2ccccc2[nH]1
4. COc1ccc2c(c1)[C@]13CCCCC1C(C2)N(C)CC3 (stereo not given in full)

Result:
1. 94.8
2. 102
3. 5.74
4. 85.3
